System: rat paw edema model
test-details: Rat paw edema model (carrageenan), anti-inflammatory activity
Format: in vivo, Sprague-Dawley (SD) rats
cond: Table 6; 1 mg/kg IV; 6 h post-carrageenan
Description: Compounds 3, 4, 10 and 202 were tested in a rat paw edema model to determine anti-inflammatory activity. […] Initial paw volumes were measured by placing the right hind limb of the rat up to the top of the hock in a beaker of water sitting on a scale that had been tared to zero and recording the readout. […] At 2, 4 and 6 hours post-carrageenan injection, the right hind foot of each rat was measured for paw volume as described above. […]
result-type: Change in Paw Volume (mL)
The answer is to be given in mL; state only the numeric part.

[in] Find the measured Change in Paw Volume of O=C(O)[C@@H]1Cc2ccc(cc2)NC(=O)[C@H](O)[C@@H](O)C(=O)N[C@H](Cc2cccs2)C(=O)N[C@@H](Cc2ccc(-c3ccncc3)cc2)C(=O)N[C@H](Cc2ccccc2)C(=O)N1 with rat paw edema model as test system.
[out] 1.33

[in] Find the measured Change in Paw Volume of O=C1COc2ccc(cc2)C[C@@H](C(=O)O)NC(=O)[C@H](CCc2ccccc2)NC(=O)[C@@H](Cc2ccc(-c3ccccc3)cc2)NC(=O)[C@H](Cc2cccs2)N1 with rat paw edema model as test system.
[out] 1.32

[in] Find the measured Change in Paw Volume of O=C1COc2ccc(cc2)C[C@@H](C(=O)N[C@@H](CCc2ccccc2)C(=O)O)NC(=O)[C@H](Cc2ccccc2)NC(=O)[C@@H](Cc2ccc(-c3ccccc3)cc2)NC(=O)[C@H](Cc2cccs2)N1 with rat paw edema model as test system.
[out] 1.42
